TGT: T1, LIN7A, O14910
T1 sequence (O14910 103-200, limits assumed, looked up): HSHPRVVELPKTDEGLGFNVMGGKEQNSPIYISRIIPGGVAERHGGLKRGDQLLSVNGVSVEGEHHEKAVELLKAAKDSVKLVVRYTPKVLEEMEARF
ASSAY_INFO: holdup assay
Parameters: key: below the threshold = too weak to quantify, mostly under pKd 3.1 to 4
TEST_PARAMETERS: plain residues with an end cap or a label only (N-terminal biotin on a linker: ado-ado)
MEASURED_QUANTITY: pKd

Consider the reported pKd for these binders:
NNNVVKVDSV [MTNR1A, P48039]
below the threshold
TGLWKHETTV [ADGRA3, Q8IWK6]
4.19
QSYPSKHDYV [CLDN18, P56856]
below the threshold
DRIQSCLSDA [SBF1, O95248]
below the threshold
AQRARSPSDV [GPR12, P47775]
below the threshold
EKCGKEFSEF [PRKACA, P17612]
below the threshold
IDESKKEWLI [CNTNAP2, Q9UHC6]
3.72
PYPTADHMLA [JUP, P14923]
below the threshold

Incoming: Value lookup for pKd; key = EDPRVEVTQF [SLC22A9, Q8IVM8]
Outgoing: below the threshold

Incoming: Now consider RSSGGDDFWF [KCNV1, Q6PIU1] .
Outgoing: below the threshold

Incoming: Then what about the binder NVYGIESVKI [GRIA2, P42262] ?
Outgoing: below the threshold

FYI, the data here is from paper PMC9482650.
